Target: Ba/F3-FGFR1-transfected cells (Homo sapiens)
Sequence (P11362 whole entry, change not shown): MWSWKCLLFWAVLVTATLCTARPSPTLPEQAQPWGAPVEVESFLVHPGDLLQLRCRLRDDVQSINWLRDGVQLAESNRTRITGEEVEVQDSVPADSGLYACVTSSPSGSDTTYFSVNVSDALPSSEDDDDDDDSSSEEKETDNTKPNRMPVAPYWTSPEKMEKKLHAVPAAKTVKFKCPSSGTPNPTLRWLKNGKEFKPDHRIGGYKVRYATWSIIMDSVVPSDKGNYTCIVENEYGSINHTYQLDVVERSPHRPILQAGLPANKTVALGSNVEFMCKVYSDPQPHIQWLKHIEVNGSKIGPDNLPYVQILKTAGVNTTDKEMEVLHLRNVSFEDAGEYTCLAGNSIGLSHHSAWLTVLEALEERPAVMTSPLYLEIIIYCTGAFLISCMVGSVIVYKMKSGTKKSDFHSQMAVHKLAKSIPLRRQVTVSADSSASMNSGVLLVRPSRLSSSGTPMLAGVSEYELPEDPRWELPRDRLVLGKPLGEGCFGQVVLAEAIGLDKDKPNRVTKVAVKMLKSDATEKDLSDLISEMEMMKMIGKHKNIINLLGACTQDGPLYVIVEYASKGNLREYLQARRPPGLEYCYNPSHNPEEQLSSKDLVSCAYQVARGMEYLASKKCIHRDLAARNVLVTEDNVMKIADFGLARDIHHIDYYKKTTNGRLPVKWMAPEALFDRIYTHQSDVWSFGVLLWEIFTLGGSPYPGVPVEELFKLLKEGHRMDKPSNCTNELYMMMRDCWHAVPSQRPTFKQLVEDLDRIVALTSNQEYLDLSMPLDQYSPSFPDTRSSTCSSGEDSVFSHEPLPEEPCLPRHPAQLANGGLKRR
Test: Ba/F3-FGFR1 (minus IL3) cellular proliferation assay, Alamar Blue
Type: cell-based
Conditions: minus IL3, 384 well
assay.readout: BAF3-FGFR 1 (MIN IL3) 384 well pIC50
Answers are plain numbers.

Reference set, count: 3
molecule | assay.readout | value.observed
COc1cc(OC)cc(N(CCO)c2ccc3ncc(N4CCC(CN)CC4)nc3c2)c1 | BAF3-FGFR 1 (MIN IL3) 384 well pIC50 | 5.05
COc1cc(OC)cc(N(CCNC(C)C)c2ccc3ncc(-c4ccnn4C4CCCCO4)nc3c2)c1 (stereo not shown) | BAF3-FGFR 1 (MIN IL3) 384 well pIC50 | 6.46
CO/N=C(\C)c1cnc2ccc(N(CCO)c3cc(OC)cc(OC)c3)cc2n1 | BAF3-FGFR 1 (MIN IL3) 384 well pIC50 | 6.41

Parameter requested: BAF3-FGFR 1 (MIN IL3) 384 well pIC50. Apply to each item below.
1. COc1cc(OC)cc(N(CCNC(C)C)c2ccc3ncc(-c4ccc(N5CCN(C)CC5)nc4)nc3c2)c1
2. COc1cc(OC)cc(N(CCN2CCNCC2)c2ccc3ncc(-c4ccc(N)nc4)nc3c2)c1
3. COc1cc(OC)cc(N(CC#Cc2ncccc2OC)c2ccc3ncc(-c4cccnc4)nc3c2)c1
4. COc1cc(OC)cc(N(CCCO)c2ccc3ncc(-c4cccnc4F)nc3c2)c1
5. COCC(CN(c1cc(OC)cc(OC)c1)c1ccc2ncc(-c3cccnc3)nc2c1)OC(C)=O (single isomer, unassigned) [Compound 52]

1. 6.04
2. 6.22
3. 6.76
4. 5.32
5. 5.96

# map each molecule to its BAF3-FGFR 1 (MIN IL3) 384 well pIC50
1. CNC(=O)OCCN(c1cc(OC)cc(OC)c1)c1ccc2ncc(-c3ccc(NC(=O)OC(C)(C)C)nc3)nc2c1
2. COc1cc(OC)cc(N(CC2CC2)c2ccc3ncc(-c4cn(CCO)nn4)nc3c2)c1
3. COc1cc(OC)cc(N(CCO)c2ccc3ncc(-c4ccc(N5CCN(C(=O)OC(C)(C)C)CC5)cc4)nc3c2)c1
4. COc1cc(OC)cc(N(CCO)c2ccc3ncc(C4=CCN(C(=O)OC(C)(C)C)CC4)nc3c2)c1

[5.08, 5.24, 5.7, 6.07]

* * *

Test system: Ba/F3-FGFR1-transfected cells in the presence of 10 ng/ml murine IL3
Test: Ba/F3-FGFR1 (plus IL3) cellular proliferation counterscreen, Alamar Blue
Format: cell-based
Conditions: Mus musculus; plus IL3, 384 well; read-out: BAF3-FGFR 1 (PLUS IL3) 384 well pIC50 (converted)
assay.readout: IC50

Some entries whose results are on file:
compound | assayed.target | IC50
COc1cc(OC)cc(N(CCCNC(C)C)c2ccc3ncc(-c4ccnc(NC(=O)NC(C)C)c4)nc3c2)c1 [Compound 131] | Ba/F3-FGFR1-transfected cells in the presence of 10 ng/ml murine IL3 | 3.98 µM
CCOC(=O)c1ncn(-c2cnc3ccc(N(CC4CC4)c4cc(OC)cc(OC)c4)cc3n2)c1C [Compound 65] | Ba/F3-FGFR1-transfected cells in the presence of 10 ng/ml murine IL3 | > 10 µM
COCC(CN(c1cc(OC)cc(OC)c1)c1ccc2ncc(-c3cccnc3)nc2c1)OC(C)=O (single isomer, unassigned) [Compound 52] | Ba/F3-FGFR1-transfected cells in the presence of 10 ng/ml murine IL3 | > 10 µM
COc1cc(OC)cc(N(CCN2CCNCC2)c2ccc3ncc(-c4ccc(N)nc4)nc3c2)c1 [Compound 59] | Ba/F3-FGFR1-transfected cells in the presence of 10 ng/ml murine IL3 | > 10 µM
COc1cc(OC)cc(N(CCO)c2ccc3ncc(/C(C)=N/OC(C)(C)C)nc3c2)c1 [Compound 171] | Ba/F3-FGFR1-transfected cells in the presence of 10 ng/ml murine IL3 | > 10 µM

Look at each compound and report its IC50.
1. COc1cc(OC)cc(N(CCCO)c2ccc3ncc(-c4ccnc(C(=O)NCCCN)c4)nc3c2)c1 [Compound 33]
2. COc1cc(OC)cc(N(CC2CC2)c2ccc3ncc(-c4nccn4C)nc3c2)c1 [Compound 60]

> 10 µM
> 10 µM
